- target-of-assay: T1, human ActRIIB (human, UniProt Q13705 19-137, limits assumed)
- T1 construct: antigen in MSD-SET; also called ACVR2B; ActR2B
- T1 sequence: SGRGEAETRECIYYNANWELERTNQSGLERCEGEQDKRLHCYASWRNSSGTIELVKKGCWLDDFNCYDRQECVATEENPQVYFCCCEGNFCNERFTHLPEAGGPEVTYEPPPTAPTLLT
- method-summary: MSD-SET
Provide the reported Kd of each item.
Answers are plain numbers, in pM.

Some binders with recorded Kd:
- binder: "Ofaschlupfer Fab (Fab, V domains shown, Fab) VH: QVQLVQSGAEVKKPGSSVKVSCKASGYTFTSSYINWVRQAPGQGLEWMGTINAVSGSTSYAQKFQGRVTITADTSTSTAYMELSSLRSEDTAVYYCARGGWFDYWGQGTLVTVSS VL: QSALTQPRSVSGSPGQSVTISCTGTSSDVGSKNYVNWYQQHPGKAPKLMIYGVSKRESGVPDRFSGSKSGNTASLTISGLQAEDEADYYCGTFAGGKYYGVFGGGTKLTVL"
  Kd (pM): 3.3
- binder: "Antibody Bebballesgmias (antibody, V domains shown, full-length IgG) VH: QVQLVQSGAEVKKPGSSVKVSCKASGYKFTSSYINWVRQAPGQGLEWMGTINPVSGSTSYAQKFQGRVTITADTSTSTAYMELSSLRSEDTAVYYCARGGWFDYWGQGTLVTVSS VL: QSALTQPRSVSGSPGQSVTISCTGTSSDVGSYNYVNWYQQHPGKAPKLMIYGVSKRPRGVPDRFSGSKSGNTASLTISGLQAEDEADYYCGTFAGGSYYGVFGGGTKLTVL"
  Kd (pM): 16.7

Consider the additional binder presented here.
Task item: Give the measured Kd of Bäradreck Fab (Fab, V domains shown, Fab) VH: QVQLVQSGAEVKKPGSSVKVSCKASGYTFTSSYINWVRQAPGQGLEWMGTINPVSGSTSYAQKFQGRVTITADTSTSTAYMELSSLRSEDTAVYYCARGGWFDYWGQGTLVTVSS VL: QSALTQPRSVSGSPGQSVTISCTGTSSDVGSYNYVNWYQQHPGKAPKLMIYGVSKRPSGVPDRFSGSKSGNTASLTISGLQAEDEADYYCGTFAGGSYYGVFGGGTKLTVL .
Reply: 1.4
